- System tested: M17 leucyl aminopeptidase (Plasmodium falciparum (isolate 3D7), UniProt Q8IL11)
- Sequence (Q8IL11 whole entry): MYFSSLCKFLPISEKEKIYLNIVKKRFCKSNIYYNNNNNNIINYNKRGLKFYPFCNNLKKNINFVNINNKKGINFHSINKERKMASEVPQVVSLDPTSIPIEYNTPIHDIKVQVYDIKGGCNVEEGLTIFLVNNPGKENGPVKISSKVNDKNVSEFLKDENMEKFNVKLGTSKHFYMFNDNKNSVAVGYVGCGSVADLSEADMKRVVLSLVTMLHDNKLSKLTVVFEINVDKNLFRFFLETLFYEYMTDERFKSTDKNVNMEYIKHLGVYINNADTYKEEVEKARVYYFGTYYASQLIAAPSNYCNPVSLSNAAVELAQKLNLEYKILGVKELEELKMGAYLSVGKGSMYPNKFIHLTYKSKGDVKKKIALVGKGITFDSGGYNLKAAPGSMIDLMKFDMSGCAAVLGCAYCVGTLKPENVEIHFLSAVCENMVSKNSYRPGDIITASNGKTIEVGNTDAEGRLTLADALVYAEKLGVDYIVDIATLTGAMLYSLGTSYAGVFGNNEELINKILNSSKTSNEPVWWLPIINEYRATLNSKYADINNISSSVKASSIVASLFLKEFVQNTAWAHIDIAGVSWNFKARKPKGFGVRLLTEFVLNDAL
- Measurement notes: P. falciparum M17LAP inhibitors, primary screen, biochemical, fluorogenic H-Leu-NHMec substrate, 1536-well (AID 1619)
Property name: pIC50
Units for pIC50: none; it is -log10 of a concentration expressed in mol/L.

The cases that follow already have their pIC50 on record.
Cc1ccc(C2C(C(=O)c3ccc(Br)cc3)C(=O)C(=O)N2Cc2ccco2)o1 (stereo not given) | 4.18
C=c1[nH]n(CCC#N)c(=O)c1=Cc1ccc(N(C)C)cc1 | 3.92
N#CC1C(=N)Oc2[nH]nc(-c3ccccc3)c2C1c1ccsc1 (stereo not given) | 4.19
CCCc1[nH]nc2c1C(CCc1ccccc1)C(C#N)C(=N)O2 (stereo not given) | 4.25
COc1ccc(NC(=O)CSc2nc(C)cc(=O)[nH]2)cc1 | 5.51

# input If you can, please state the reported pIC50 value of Cc1c(C)c(O)c(C=CCCC#CCCCC#CCO)c(C)c1O .
# output 4.27

# input Note, next up: O=C(CSc1n[nH]c(=O)[nH]c1=O)NN=Cc1ccccc1O
# output 3.89

# input Note, next up: Cc1[nH][nH]c(=O)c1CCC(=O)NN=Cc1ccco1
# output 4.16

# input Note, next up: Cc1ccc(-c2n[nH]c3c2C(c2ccsc2)C(C#N)C(=N)O3)cc1 (stereo not given)
# output 4.95

# input Note, next up: CC(C)(C)OC(=O)C1=[N+]2N[CH-]c3ccccc3C2C2(C(=O)c3ccccc3C2=O)[C@H]1c1ccc([N+](=O)[O-])cc1 (stereo not given in full)
# output 5.65
